# assayed-system: T1, hCD137 (FXa digested) (human, UniProt Q07011 24-186)
# T1 construct: Factor Xa digestion and Protein A removed the Fc; also called human CD137 extracellular domain
# T1 sequence (Q07011 other isoform, or with tags, fused parts or gaps limits assumed): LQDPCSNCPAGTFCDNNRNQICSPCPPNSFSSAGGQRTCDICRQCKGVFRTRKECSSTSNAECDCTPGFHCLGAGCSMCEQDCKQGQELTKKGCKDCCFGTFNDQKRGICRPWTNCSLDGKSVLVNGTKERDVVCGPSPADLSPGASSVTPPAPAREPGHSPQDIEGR
# protocol-summary: SPR, 1 mM ATP
reported-endpoint: binding amount (RU)
One number for each entry, in RU.

So, dBBAT112-P253 (antibody, human IgG1, lambda, V domains shown) VH: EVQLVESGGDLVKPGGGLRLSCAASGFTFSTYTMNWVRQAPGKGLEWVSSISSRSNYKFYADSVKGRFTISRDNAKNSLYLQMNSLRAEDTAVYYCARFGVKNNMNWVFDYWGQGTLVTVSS VL: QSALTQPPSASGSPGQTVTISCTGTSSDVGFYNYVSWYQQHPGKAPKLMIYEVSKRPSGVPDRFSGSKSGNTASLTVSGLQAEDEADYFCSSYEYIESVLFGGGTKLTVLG ? Its binding amount was 12.6
